# assay target: T1, ARHGEF11, O15085
# T1 sequence (O15085 42-136, limits assumed, looked up): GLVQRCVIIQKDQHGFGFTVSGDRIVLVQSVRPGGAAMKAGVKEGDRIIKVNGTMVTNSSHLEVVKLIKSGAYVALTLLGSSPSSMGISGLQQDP
# protocol description: holdup assay
# Set-up: key: below the threshold = too weak to quantify, mostly under pKd 3.1 to 4
# condition notes: plain residues with an end cap or a label only (N-terminal biotin on a linker: ahx)
Decide by pKd: equal to or exceeding 4 means label 1, less means label 0.

Challenge: Given the entry TVICWPGSLV [LNX2, Q8N448] , answer whether its pKd meets or surpasses 4.
Response given: label 0

Challenge: State whether the measured pKd reaches 4, counting equality as reaching it, for HNAFLSVTTV [PDZRN4, Q6ZMN7]
Response given: label 0

Challenge: Has GYDWGPATDL [TJP3, O95049] a recorded pKd greater than or equal to 4?
Response given: label 1

From: paper PMC9482650
